B1: library; a variant is named by its letters at N, in order (parent)
chain: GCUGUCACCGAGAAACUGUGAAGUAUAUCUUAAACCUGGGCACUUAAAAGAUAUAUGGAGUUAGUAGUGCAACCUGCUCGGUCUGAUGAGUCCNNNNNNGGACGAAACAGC

- Variants of: B1
- assay_name: FACS-Seq fitted mean relative fluorescence mCherry/BFP with ligand (log10 relative fluorescence); HEK293T; ligand: cyclic di-GMP (c-di-GMP-II aptamer); ligand concentration (+) FACS-Seq: 1 mM; higher = higher reporter protein expression
- test_conditions: ligand present: yes
Rule: YES for FACS-Seq fitted mean (log10) not less than -0.1, NO for anything less.

- variant_string: "UCAGUA"
  group_label: "NO"
- variant_string: "AAGAAU"
  group_label: "NO"
- variant_string: "AAAACG"
  group_label: "NO"
- variant_string: "GCGGAA"
  group_label: "NO"
- variant_string: "GCGCUA"
  group_label: "NO"
- variant_string: "ACGAAA"
  group_label: "NO"
- variant_string: "GCACGA"
  group_label: "NO"
- variant_string: "AAUGUU"
  group_label: "NO"
- variant_string: "CGAGAU"
  group_label: "YES"
- variant_string: "ACAAGA"
  group_label: "NO"
- variant_string: "CCAGUC"
  group_label: "YES"
- variant_string: "GCGGAC"
  group_label: "NO"
- variant_string: "AGCGUG"
  group_label: "NO"
- variant_string: "UUAUGG"
  group_label: "YES"
- variant_string: "CACGGA"
  group_label: "YES"
- variant_string: "ACUCAG"
  group_label: "NO"
- variant_string: "CACUAA"
  group_label: "NO"
- variant_string: "UCGGUC"
  group_label: "YES"
- variant_string: "CUUCAU"
  group_label: "NO"
- variant_string: "UAUAUC"
  group_label: "NO"
- variant_string: "UCGCAA"
  group_label: "YES"
- variant_string: "UAUUCU"
  group_label: "NO"
- variant_string: "ACACGA"
  group_label: "NO"
- variant_string: "AACACU"
  group_label: "YES"
- variant_string: "GCACUU"
  group_label: "NO"
- variant_string: "CACUUA"
  group_label: "YES"
- variant_string: "ACGAUG"
  group_label: "NO"
- variant_string: "UCCUCC"
  group_label: "NO"
- variant_string: "UACGCU"
  group_label: "YES"
